Test: Cytotoxicity against GFP fused human MT4 cells cultured under serum free condition for 24 hrs by CellTiter-Glo assay
Assay type: toxicity, cell-based
Conditions: GFP fused MT4 cells
1 (yes) if EC50 at 24 h is below 20 µM. 0 (no) if not; exact matches included in 0 (no).

molecule=O=C(O)c1cc(CN[C@H]2C[C@@H](CNc3ccc(NS(=O)(=O)c4cnn(-c5ccc(Cl)cc5)c4)c(C(=O)O)c3)C2)ccc1NS(=O)(=O)c1cnn(-c2ccc(Cl)cc2)c1 grouplabel="0 (no)"
molecule=O=C(CCCOc1ccc(NS(=O)(=O)c2cnn(-c3ccc(F)cc3)c2)c(C(=O)O)c1)Nc1ccc(NS(=O)(=O)c2cnn(-c3ccc(F)cc3)c2)c(C(=O)O)c1 grouplabel="0 (no)"
molecule=O=C(O)c1cc(CN2CC(Oc3ccc(NS(=O)(=O)c4cnn(-c5ccc(F)cc5)c4)c(C(=O)O)c3)C2)ccc1NS(=O)(=O)c1cnn(-c2ccc(F)cc2)c1 grouplabel="0 (no)"
molecule=O=C(O)c1cc(CN2CC(Oc3ccc(NS(=O)(=O)c4ccc(-c5ccc(F)cc5)s4)c(C(=O)O)c3)C2)ccc1NS(=O)(=O)c1cnn(-c2ccc(F)cc2)c1 grouplabel="0 (no)"
molecule=O=C(CCCOc1ccc(NS(=O)(=O)c2ccc(-c3ccc(C(F)(F)F)cc3)cc2)c(C(=O)O)c1)Nc1ccc(NS(=O)(=O)c2ccc(-c3ccc(C(F)(F)F)cc3)cc2)c(C(=O)O)c1 grouplabel="1 (yes)"
molecule=O=C(O)c1cc(CN[C@H]2C[C@@H](NCc3ccc(NS(=O)(=O)c4cnn(-c5ccc(Cl)cc5)c4)c(C(=O)O)c3)C2)ccc1NS(=O)(=O)c1cnn(-c2ccc(Cl)cc2)c1 grouplabel="0 (no)"
molecule=CCCCc1ccc(S(=O)(=O)Nc2ccc(OCCCCOc3ccc(NS(=O)(=O)c4ccc(CCCC)cc4)c(C(=O)O)c3)cc2C(=O)O)cc1 grouplabel="1 (yes)"
molecule=O=C(O)c1cc(CNC2CN(Cc3ccc(NS(=O)(=O)c4cnn(-c5ccc(Cl)cc5)c4)c(C(=O)O)c3)C2)ccc1NS(=O)(=O)c1cnn(-c2ccc(Cl)cc2)c1 grouplabel="0 (no)"
molecule=Cn1nc(-c2ccccc2)cc1S(=O)(=O)Nc1ccc(NC(=O)CCCOc2ccc(NS(=O)(=O)c3cc(-c4ccccc4)nn3C)c(C(=O)O)c2)cc1C(=O)O grouplabel="1 (yes)"
molecule=O=C(CCCOc1ccc(NS(=O)(=O)c2cnn(-c3ccc(Cl)cc3)c2)c(C(=O)O)c1)Nc1ccc(NS(=O)(=O)c2cnn(-c3ccc(Cl)cc3)c2)c(C(=O)O)c1 grouplabel="0 (no)"
molecule=O=C(CCCOc1ccc(NS(=O)(=O)c2ccc(-c3ccc(Cl)cc3)s2)c(C(=O)O)c1)Nc1ccc(NS(=O)(=O)c2ccc(-c3ccc(Cl)cc3)s2)c(C(=O)O)c1 grouplabel="1 (yes)"
molecule="C[C@@H]1[C@H](Oc2ccc(NS(=O)(=O)c3cnn(-c4ccc(Cl)cc4)c3)c(C(=O)O)c2)CN1Cc1ccc(NS(=O)(=O)c2cnn(-c3ccc(Cl)cc3)c2)c(C(=O)O)c1 (racemic)" grouplabel="0 (no)"
molecule=O=C(O)c1cc(CN2CC(Oc3ccc(NS(=O)(=O)c4ccc(-c5ccc(F)cc5)s4)c(C(=O)O)c3)C2)ccc1NS(=O)(=O)c1cnn(-c2ccc(Cl)cc2)c1 grouplabel="0 (no)"
molecule=O=C(CCCOc1ccc(NS(=O)(=O)c2ccc(Oc3ccc(Cl)cc3)nc2)c(C(=O)O)c1)Nc1ccc(NS(=O)(=O)c2ccc(Oc3ccc(Cl)cc3)nc2)c(C(=O)O)c1 grouplabel="0 (no)"
